Value source: patent US20240228482A1

target: CBL-B (Homo sapiens, UniProt Q13191); construct: GST; assay: CBL-B TR-FRET IC50 screening (E1/E2 ubiquitination, Biotin-Ubiquitin, Anti GST-Tb donor / Streptavidin-d2 acceptor); type: biochemical; conditions: CBL-B 10 nM final; 11-point titration from 100 uM; binned A-F; read-out: CBL-B TR-FRET activity IC50
Sequence (Q13191 whole entry): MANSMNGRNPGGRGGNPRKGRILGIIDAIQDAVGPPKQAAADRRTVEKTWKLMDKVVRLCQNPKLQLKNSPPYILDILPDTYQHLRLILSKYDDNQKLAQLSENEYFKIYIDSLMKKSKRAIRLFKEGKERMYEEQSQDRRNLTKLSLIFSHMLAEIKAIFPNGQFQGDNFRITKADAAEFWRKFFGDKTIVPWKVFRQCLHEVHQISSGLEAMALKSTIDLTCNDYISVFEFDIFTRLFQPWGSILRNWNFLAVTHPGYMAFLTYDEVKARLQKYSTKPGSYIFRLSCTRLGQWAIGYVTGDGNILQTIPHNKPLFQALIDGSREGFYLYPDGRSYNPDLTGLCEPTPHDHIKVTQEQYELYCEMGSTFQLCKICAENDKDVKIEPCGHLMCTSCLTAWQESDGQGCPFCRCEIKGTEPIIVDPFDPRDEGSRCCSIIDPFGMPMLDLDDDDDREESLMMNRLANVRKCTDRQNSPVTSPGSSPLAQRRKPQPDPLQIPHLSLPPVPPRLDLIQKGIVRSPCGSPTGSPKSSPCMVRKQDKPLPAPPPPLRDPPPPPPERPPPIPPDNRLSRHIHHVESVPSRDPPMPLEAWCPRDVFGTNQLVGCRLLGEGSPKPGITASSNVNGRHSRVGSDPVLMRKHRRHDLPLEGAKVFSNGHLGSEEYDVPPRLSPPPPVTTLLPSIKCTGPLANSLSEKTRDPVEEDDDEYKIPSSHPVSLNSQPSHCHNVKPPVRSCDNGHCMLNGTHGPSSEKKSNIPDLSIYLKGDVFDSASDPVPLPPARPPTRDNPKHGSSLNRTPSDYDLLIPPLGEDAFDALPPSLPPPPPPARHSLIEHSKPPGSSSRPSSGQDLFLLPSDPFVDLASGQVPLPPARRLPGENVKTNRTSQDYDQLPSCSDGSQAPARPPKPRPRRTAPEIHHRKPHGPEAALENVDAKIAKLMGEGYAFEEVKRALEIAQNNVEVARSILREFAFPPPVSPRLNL
readoutType: IC50

Example molecules with recorded IC50:
C[C@H]1CCCN(Cc2cc(C(F)(F)F)c3cn(-c4cccc([C@]5(c6nncn6C)C[C@@H](C)C5)c4)c(=O)n3c2)C1 (single isomer, unassigned) [Compound 59]	< 100 nM
Cn1cnnc1C1(c2cccc(-n3cc4c(C(F)(F)F)cc(CN5CC[C@H](F)C5)cn4c3=O)c2)CC2(CC2)C1	< 100 nM
COc1cc(-n2cc3c(C(F)(F)F)cc(CN4CC[C@H](F)C4)cn3c2=O)cc(C2(Cc3nncn3C)COC2)c1	< 100 nM
CN(Cc1cc(C(F)(F)F)c2cn(-c3cccc([C@H](c4nncn4C)C4CCC4)c3)c(=O)n2c1)C1COC1	< 100 nM
Cn1cnnc1[C@H](c1cccc(-n2cc3c(C(F)(F)F)cc(CN4CC[C@H](F)C4)cn3c2=O)c1)C1CCC1	3000 to 10000 nM

Switching to the query record.
Prompt line: Under CBL-B (Homo sapiens, UniProt Q13191), report IC50 for C[C@H]1CCCN(Cc2cc(C(F)(F)F)c3cn(-c4cccc([C@]5(c6nncn6C)C[C@H](O)C5)c4)c(=O)n3c2)C1 (single isomer, unassigned)
Response line: 100 to 300 nM
